Ref: patent US9394285B2

Catalogue of compounds with associated EC50
system-under-test: human AMPK (full-length γ1, β1 and α1 subunits) (Homo sapiens (Human), UniProt Q13131+Q9Y478)
Sequence (Q13131 whole entry): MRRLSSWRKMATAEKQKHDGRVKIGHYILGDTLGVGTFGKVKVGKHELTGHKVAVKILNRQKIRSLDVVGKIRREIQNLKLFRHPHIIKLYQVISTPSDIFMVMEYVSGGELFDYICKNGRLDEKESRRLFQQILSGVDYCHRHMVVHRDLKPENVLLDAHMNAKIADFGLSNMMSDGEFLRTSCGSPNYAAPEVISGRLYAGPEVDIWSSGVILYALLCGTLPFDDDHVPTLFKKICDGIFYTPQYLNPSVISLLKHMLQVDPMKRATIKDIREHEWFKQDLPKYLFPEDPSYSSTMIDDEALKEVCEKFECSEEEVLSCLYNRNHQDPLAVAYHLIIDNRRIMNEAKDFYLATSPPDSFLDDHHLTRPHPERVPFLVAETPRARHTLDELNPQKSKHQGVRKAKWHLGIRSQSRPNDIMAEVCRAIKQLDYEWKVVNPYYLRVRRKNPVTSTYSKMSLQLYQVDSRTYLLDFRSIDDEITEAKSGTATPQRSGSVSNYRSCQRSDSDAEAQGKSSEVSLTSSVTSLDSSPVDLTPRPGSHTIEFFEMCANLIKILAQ
Sequence (Q9Y478 whole entry): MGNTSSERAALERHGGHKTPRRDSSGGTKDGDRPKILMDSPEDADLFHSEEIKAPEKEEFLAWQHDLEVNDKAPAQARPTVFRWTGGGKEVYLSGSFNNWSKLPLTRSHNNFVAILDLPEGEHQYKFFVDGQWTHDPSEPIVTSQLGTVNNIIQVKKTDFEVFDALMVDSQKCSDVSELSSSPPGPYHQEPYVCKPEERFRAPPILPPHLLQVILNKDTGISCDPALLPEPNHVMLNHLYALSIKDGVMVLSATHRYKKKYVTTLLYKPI
Sequence (P54619 whole entry partner): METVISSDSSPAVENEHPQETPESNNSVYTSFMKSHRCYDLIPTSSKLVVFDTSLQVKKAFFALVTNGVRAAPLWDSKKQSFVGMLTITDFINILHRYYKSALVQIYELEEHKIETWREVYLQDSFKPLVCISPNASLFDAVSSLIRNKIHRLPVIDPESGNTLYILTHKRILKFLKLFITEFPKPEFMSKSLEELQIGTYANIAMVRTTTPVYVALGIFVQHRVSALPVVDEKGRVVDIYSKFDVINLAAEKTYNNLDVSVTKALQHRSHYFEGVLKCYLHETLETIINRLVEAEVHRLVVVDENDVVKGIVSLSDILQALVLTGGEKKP
test-name: AMPK in vitro biochemical assay (33P-based, SAMS peptide, PP2A dephosphorylation)
run-conditions: activation of phosphorylated AMPK; 33P-ATP, SAMS peptide, PP2A treatment; 4-parameter fit
Give the value, in units of nM, as a plain number.

compound	unit	quantitative-result
O=C(O)c1c[nH]c2cc(Cl)c(-c3ccc(C4CCCO4)cc3)cc12 (single isomer, unassigned) [Example 154]	nM	28.3
O=C(O)c1c[nH]c2cc(F)c(-c3ccc(C4CCCCO4)cc3)cc12 (single isomer, unassigned) [Example 171]	nM	32.9
COc1nc(N(C)CCO)ccc1-c1cc2c(C(=O)O)c[nH]c2cc1Cl [Example 186]	nM	84.5

Please examine the following record next.
According to the records, this compound O=C(O)CCOc1ccc(-c2cc3c(C(=O)O)c[nH]c3cc2Cl)cc1 [Example 90] displays EC50 of 372
